- Measurement Target: human prostanoid IP receptor (Homo sapiens)
- Construct: expressed in transfected cells
- Sequence (P43119 whole entry): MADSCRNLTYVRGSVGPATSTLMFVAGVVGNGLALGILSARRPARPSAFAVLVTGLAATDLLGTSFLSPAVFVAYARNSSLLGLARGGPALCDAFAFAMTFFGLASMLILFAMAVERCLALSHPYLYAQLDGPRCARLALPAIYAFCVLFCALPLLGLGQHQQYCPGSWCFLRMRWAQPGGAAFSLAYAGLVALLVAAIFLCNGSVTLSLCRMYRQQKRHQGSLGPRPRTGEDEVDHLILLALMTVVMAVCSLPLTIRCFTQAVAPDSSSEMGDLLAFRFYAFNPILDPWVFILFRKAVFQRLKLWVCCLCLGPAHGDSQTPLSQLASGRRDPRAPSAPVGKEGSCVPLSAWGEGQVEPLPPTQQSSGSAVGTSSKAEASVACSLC
- Protocol Description: FLIPR Ca2+ signaling antagonist assay, IP receptor stable cell line
- Assay type: cell-based
- Condition Parameters: HEK-293 EBNA stable cell line; standard agonist Cicaprost; NA = inactive (no antagonism or Kb 10,000 nM); PAg, Ag not defined
Binary classification by Kb, with 2 µM as an inclusive lower bound for 1; all other cases are 0.

**Query** Determine whether measured Kb meets or exceeds 2 µM for CCC(CC)COc1ccc(Br)cc1Cn1nc(CC(C)C(=O)O)cc1C (centres unmarked)
**Result** 0

**Query** hey, is Kb for this one >= 2 µM? Cc1cc(CCC(=O)O)nn1Cc1cc(Br)ccc1OCC1(C(F)(F)F)CCC1
**Result** 1

**Query** Say whether CCCc1cc(CCC(=O)O)nn1Cc1cc(Br)ccc1OCC(CC)CC shows Kb of 2 µM or more.
**Result** 0

**Query** API: above_or_equal(metric=Kb, cutoff=2 µM) for item CCC(CC)COc1ccc(Br)cc1Cn1ccc(CCC(=O)O)n1
**Result** 1

**Query** Confirm if Kb reported for the molecule Cc1cc(CCC(=O)NS(=O)(=O)C(F)(F)F)nn1Cc1cc(Br)ccc1OCC(C)C is 2 µM or above.
**Result** 0

====

Listed next: entries and their corresponding log10 Kb.
- Measurement Target: human prostanoid EP1 receptor (Homo sapiens)
- Construct: expressed in transfected cells
- Sequence (P34995 whole entry): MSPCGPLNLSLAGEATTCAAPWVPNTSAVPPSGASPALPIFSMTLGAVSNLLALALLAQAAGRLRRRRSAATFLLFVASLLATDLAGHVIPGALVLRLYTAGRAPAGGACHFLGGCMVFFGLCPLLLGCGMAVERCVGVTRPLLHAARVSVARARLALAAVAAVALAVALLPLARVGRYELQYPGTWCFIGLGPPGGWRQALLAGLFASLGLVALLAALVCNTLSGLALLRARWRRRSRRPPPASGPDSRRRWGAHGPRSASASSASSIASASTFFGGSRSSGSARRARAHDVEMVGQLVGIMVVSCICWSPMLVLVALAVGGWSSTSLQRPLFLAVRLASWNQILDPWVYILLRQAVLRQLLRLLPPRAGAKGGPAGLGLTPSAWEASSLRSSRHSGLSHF
- Protocol Description: FLIPR Ca2+ signaling antagonist assay, EP1 receptor stable cell line
- Assay type: cell-based
- Condition Parameters: HEK-293 EBNA stable cell line; standard agonist PGE2; NA = inactive (no antagonism or Kb 10,000 nM); PAg, Ag not defined
Heads up, the numbers here are log10 of Kb in µM units.

Example results:
For this compound ( Cc1cc(CCC(=O)O)nn1Cc1cc(Cl)ccc1OCC1(C(F)(F)F)CCC1 ), measured log10 Kb is -0.85

Lab note: measured log10 Kb of CCC(C)CCOc1ccc(Cl)cc1Cn1nc(CCC(=O)O)cc1C (stereo not drawn) was -0.85

The compound listed as CCC(CC)COc1ccc(Br)cc1Cn1nc(CCC(=O)O)cc1C(C)(C)C shows log10 Kb equal to -0.82

For CCC(CC)COc1ccc(C(=O)O)cc1Cn1nc(CCC(=O)O)cc1C the compound record lists log10 Kb as 0.30

Measured log10 Kb of CCC(CC)COc1ccc(-c2ccccc2)cc1Cn1nc(CCC(=O)O)cc1C : -0.15

Then this compound:
For record CCC(CC)COc1ccccc1Cn1nc(CC(C)C(=O)O)cc1C (racemic) the listed log10 Kb is -0.74

====

- Measurement Target: human prostanoid EP4 receptor (Homo sapiens, UniProt P35408)
- Construct: expressed in transfected cells
- Sequence (P35408 whole entry): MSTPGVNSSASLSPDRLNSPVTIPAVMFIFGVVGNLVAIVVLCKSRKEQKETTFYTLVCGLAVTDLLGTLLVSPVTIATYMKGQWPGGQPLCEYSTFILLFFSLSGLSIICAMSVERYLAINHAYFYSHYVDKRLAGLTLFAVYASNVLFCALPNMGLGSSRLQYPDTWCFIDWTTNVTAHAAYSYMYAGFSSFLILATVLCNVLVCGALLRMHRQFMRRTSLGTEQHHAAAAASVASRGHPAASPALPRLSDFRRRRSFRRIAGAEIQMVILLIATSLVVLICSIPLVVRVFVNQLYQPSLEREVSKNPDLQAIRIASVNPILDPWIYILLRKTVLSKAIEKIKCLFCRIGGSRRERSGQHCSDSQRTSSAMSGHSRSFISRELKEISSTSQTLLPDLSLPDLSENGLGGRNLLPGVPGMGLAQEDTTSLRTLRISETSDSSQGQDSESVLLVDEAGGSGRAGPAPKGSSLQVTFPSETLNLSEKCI
- Protocol Description: FLIPR Ca2+ signaling antagonist assay, EP4 receptor stable cell line
- Format: cell-based
- Condition Parameters: HEK-293 EBNA stable cell line; standard agonist PGE2; NA = inactive (no antagonism or Kb 10,000 nM); PAg, Ag not defined
Observation Type: Kb (nM)
Please respond with the number in nM and leave the unit unwritten.

Sure, the documented Kb for C#Cc1ccc(OCC(CC)CC)c(Cn2nc(CCC(=O)O)cc2C)c1 is 500

Others:
Short answer for CCc1ccc(OCC(CC)CC)c(Cn2nc(CCC(=O)O)cc2C)c1 : Kb was 900

Data point: Cc1cc(CC(C)(C)C(=O)O)nn1Cc1cc(Br)ccc1OCC1CCCC1 ; Kb = 80

// CCC(CC)COc1ccc(C)cc1Cn1nc(CCC(=O)O)cc1C : Kb value = 100

Reported Kb ( CCC(CC)COc1ccc(C(N)=O)cc1Cn1nc(CCC(=O)O)cc1C ) = 800

Recorded result, CCCc1cc(CCC(=O)O)nn1Cc1cc(Br)ccc1OCC(CC)CC , Kb: 3

So, Cc1cc(CCC(=O)O)nn1Cc1cc(Br)ccc1OCC1(C(F)(F)F)CCCC1 ? Its Kb was 1900

Lab note: COc1ccc(OCC2CCCC2)c(Cn2nc(CCC(=O)O)cc2C)c1 gave Kb of 1890

Kindly note the recorded Kb for CCC(CC)COc1ccc(-c2ccccc2)cc1Cn1nc(CCC(=O)O)cc1C , which is 4000

Note to self: Kb recorded for CCC(CC)COc1ccccc1Cn1nc(CC(C)C(=O)O)cc1C (racemic) was 600

Consider CCCCCCCOc1ccc(Br)cc1Cn1nc(CCC(=O)O)cc1C . Its measured Kb is 8100

The compound listed as CCC(CC)COc1ccc(C(C)(C)C)cc1Cn1nc(CCC(=O)O)cc1C has a reported Kb of 1800

Recorded Kb (compound Cc1cc(CCC(=O)O)nn1Cc1cc(Cl)ccc1OCC1(C(F)(F)F)CCC1 ): 3600

The compound COc1ccc(OCC2CC2)c(Cn2nc(CCC(=O)O)cc2C)c1 showed Kb equal to 4700

Memo: Cc1cc(CCC(=O)NS(=O)(=O)C(F)(F)F)nn1Cc1cc(Cl)ccc1OCc1ccc(Cl)cc1Cl , reported Kb: 150

Input Cc1cc(CCC(=O)NS(=O)(=O)c2ccccc2)nn1Cc1cc(Cl)ccc1OCc1ccc(Cl)cc1 . Output Kb: 900
